# Test system: NCI-H226
# test-parameters: NCI-H226 (Non-Small Cell Lung Cancer), 48 hours, SRB
Property: TGI; scope: individual compounds
measurement-label: TGI

>>> measured("[2H]On1c2c(c3ccc4c(c31)C=CC(C)(C)O4)C(OC([2H])([2H])[2H])[C@@]13NC(=O)C4(CCCN4C1=O)CC3C2(C)C (stereo partly shown) [Deuterated Methanol Adduct]")
"1.7 µM"
>>> measured("Cc1cc(C)cc(-c2ccc3c(c2)[N+]([O-])=C2C3=C[C@@]34NC(=O)C5(CCCN5C3=O)CC4C2(C)C)c1 (stereo partly shown) [Biphenyl Analogue]")
"0.707 µM"
>>> measured("CN(C)c1cccc2c(S(=O)(=O)NCCCCCCCCCCOc3ccc4c(c3)[N+]([O-])=C3C4=C[C@@]45NC(=O)C6(CCCN6C4=O)CC5C3(C)C)cccc12 (stereo partly shown) [Dansyl Analogue]")
"3.03 µM"
>>> measured("CC1(C)C=Cc2c(ccc3c4c(n(O)c23)C(C)(C)C2CC35CCCN3C(=O)C2(NC5=O)C4SCC(NC(=O)CCC(N)C(=O)O)C(=O)NCC(=O)O)O1 (stereo not shown) [Glutathione Adduct]")
"2.29 µM"

* * *

# CC50 annotations
# Test system: MDA-MB-231/ATCC
# test-parameters: read-out: LC50; MDA-MB-231/ATCC (Breast Cancer), 48 hours, SRB
measurement-label: CC50

>>> measured("CN(C)c1cccc2c(S(=O)(=O)NCCCCCCCCCCOc3ccc4c(c3)[N+]([O-])=C3C4=C[C@@]45NC(=O)C6(CCCN6C4=O)CC5C3(C)C)cccc12 (some centres unmarked) [Dansyl Analogue]")
"40.5 µM"
>>> measured("CC1(C)C=Cc2c(ccc3c4c(n(O)c23)C(C)(C)C2CC35CCCN3C(=O)C2(NC5=O)C4SCC(NC(=O)CCC(N)C(=O)O)C(=O)NCC(=O)O)O1 (centres unmarked) [Glutathione Adduct]")
"14.7 µM"

* * *

# Test system: SN12C
# test-parameters: SN12C (Renal Cancer), 48 hours, SRB
Each entry below carries its recorded TGI.
measurement-label: TGI (µM)

>>> measured("CN(C)c1cccc2c(S(=O)(=O)NCCCCCCCCCCOc3ccc4c(c3)[N+]([O-])=C3C4=C[C@@]45NC(=O)C6(CCCN6C4=O)CC5C3(C)C)cccc12 (stereo partly shown)")
6.81
>>> measured("CC1(C)C=Cc2c(ccc3c4c(n(O)c23)C(C)(C)C2CC35CCCN3C(=O)C2(NC5=O)C4SCC(NC(=O)CCC(N)C(=O)O)C(=O)NCC(=O)O)O1 (stereo not shown)")
5.64
>>> measured("Cc1cc(C)cc(-c2ccc3c(c2)[N+]([O-])=C2C3=C[C@@]34NC(=O)C5(CCCN5C3=O)CC4C2(C)C)c1 (stereo partly shown)")
0.614
>>> measured("[2H]On1c2c(c3ccc4c(c31)C=CC(C)(C)O4)C(OC([2H])([2H])[2H])[C@@]13NC(=O)C4(CCCN4C1=O)CC3C2(C)C (stereo partly shown)")
2.32

* * *

# Tested on: U251
# test-parameters: read-out: LC50; U251 (CNS Cancer), 48 hours, SRB
measurement-label: CC50 (µM)

>>> measured("CC1(C)C=Cc2c(ccc3c4c(n(O)c23)C(C)(C)C2CC35CCCN3C(=O)C2(NC5=O)C4SCC(NC(=O)CCC(N)C(=O)O)C(=O)NCC(=O)O)O1 (centres unmarked) [Glutathione Adduct]")
4.76
>>> measured("CN(C)c1cccc2c(S(=O)(=O)NCCCCCCCCCCOc3ccc4c(c3)[N+]([O-])=C3C4=C[C@@]45NC(=O)C6(CCCN6C4=O)CC5C3(C)C)cccc12 (some centres unmarked) [Dansyl Analogue]")
0.64

* * *

# System: EKVX
# test-parameters: EKVX (Non-Small Cell Lung Cancer), 48 hours, SRB
measurement-label: TGI (nM)

>>> measured("Cc1cc(C)cc(-c2ccc3c(c2)[N+]([O-])=C2C3=C[C@@]34NC(=O)C5(CCCN5C3=O)CC4C2(C)C)c1 (stereo partly shown) [Biphenyl Analogue]")
1110
>>> measured("CN(C)c1cccc2c(S(=O)(=O)NCCCCCCCCCCOc3ccc4c(c3)[N+]([O-])=C3C4=C[C@@]45NC(=O)C6(CCCN6C4=O)CC5C3(C)C)cccc12 (stereo partly shown) [Dansyl Analogue]")
3630
>>> measured("[2H]On1c2c(c3ccc4c(c31)C=CC(C)(C)O4)C(OC([2H])([2H])[2H])[C@@]13NC(=O)C4(CCCN4C1=O)CC3C2(C)C (stereo partly shown) [Deuterated Methanol Adduct]")
1970
>>> measured("CC1(C)C=Cc2c(ccc3c4c(n(O)c23)C(C)(C)C2CC35CCCN3C(=O)C2(NC5=O)C4SCC(NC(=O)CCC(N)C(=O)O)C(=O)NCC(=O)O)O1 (stereo not shown) [Glutathione Adduct]")
5400

* * *

# Test system: MOLT-4
# test-parameters: read-out: LC50; MOLT-4 (Leukemia), 48 hours, SRB
measurement-label: CC50 (µM)

>>> measured("CC1(C)C=Cc2c(ccc3c4c(n(O)c23)C(C)(C)C2CC35CCCN3C(=O)C2(NC5=O)C4SCC(NC(=O)CCC(N)C(=O)O)C(=O)NCC(=O)O)O1 (centres unmarked) [Glutathione Adduct]")
20.6

* * *

# Test system: UO-31
# test-parameters: read-out: LC50; UO-31 (Renal Cancer), 48 hours, SRB
measurement-label: CC50 (µM)

>>> measured("CN(C)c1cccc2c(S(=O)(=O)NCCCCCCCCCCOc3ccc4c(c3)[N+]([O-])=C3C4=C[C@@]45NC(=O)C6(CCCN6C4=O)CC5C3(C)C)cccc12 (some centres unmarked)")
6.48
>>> measured("CC1(C)C=Cc2c(ccc3c4c(n(O)c23)C(C)(C)C2CC35CCCN3C(=O)C2(NC5=O)C4SCC(NC(=O)CCC(N)C(=O)O)C(=O)NCC(=O)O)O1 (centres unmarked)")
15

* * *

// reported CC50 for each item listed
# Test system: SK-MEL-5
# test-parameters: read-out: LC50; SK-MEL-5 (Melanoma), 48 hours, SRB
measurement-label: CC50 (µM)

>>> measured("CC1(C)C=Cc2c(ccc3c4c(n(O)c23)C(C)(C)C2CC35CCCN3C(=O)C2(NC5=O)C4SCC(NC(=O)CCC(N)C(=O)O)C(=O)NCC(=O)O)O1 (centres unmarked)")
4.17
>>> measured("CN(C)c1cccc2c(S(=O)(=O)NCCCCCCCCCCOc3ccc4c(c3)[N+]([O-])=C3C4=C[C@@]45NC(=O)C6(CCCN6C4=O)CC5C3(C)C)cccc12 (some centres unmarked)")
3.84

* * *

# System: CAKI-1
# experiment: NCI 60 cell lines, SRB assay: CAKI-1
# Assay type: cell-based, human
# test-parameters: CAKI-1 (Renal Cancer), 48 hours, read-out: LC50 (the source's name)
measurement-label: CC50 (µM)

>>> measured("CN(C)c1cccc2c(S(=O)(=O)NCCCCCCCCCCOc3ccc4c(c3)[N+]([O-])=C3C4=C[C@@]45NC(=O)C6(CCCN6C4=O)CC5C3(C)C)cccc12 (stereo partly shown)")
20.8

* * *

# Test system: HT29
# test-parameters: read-out: LC50; HT29 (Colon Cancer), 48 hours, SRB
CC50: recorded values
measurement-label: CC50 (µM)

>>> measured("CC1(C)C=Cc2c(ccc3c4c(n(O)c23)C(C)(C)C2CC35CCCN3C(=O)C2(NC5=O)C4SCC(NC(=O)CCC(N)C(=O)O)C(=O)NCC(=O)O)O1 (centres unmarked)")
4.51
>>> measured("CN(C)c1cccc2c(S(=O)(=O)NCCCCCCCCCCOc3ccc4c(c3)[N+]([O-])=C3C4=C[C@@]45NC(=O)C6(CCCN6C4=O)CC5C3(C)C)cccc12 (some centres unmarked)")
3.96

* * *

# Tested on: HCT-15
# test-parameters: read-out: LC50; HCT-15 (Colon Cancer), 48 hours, SRB
Some compounds, each annotated with its measured CC50.
measurement-label: CC50 (µM)

>>> measured("CN(C)c1cccc2c(S(=O)(=O)NCCCCCCCCCCOc3ccc4c(c3)[N+]([O-])=C3C4=C[C@@]45NC(=O)C6(CCCN6C4=O)CC5C3(C)C)cccc12 (some centres unmarked) [Dansyl Analogue]")
4.18
>>> measured("CC1(C)C=Cc2c(ccc3c4c(n(O)c23)C(C)(C)C2CC35CCCN3C(=O)C2(NC5=O)C4SCC(NC(=O)CCC(N)C(=O)O)C(=O)NCC(=O)O)O1 (centres unmarked) [Glutathione Adduct]")
4.93

* * *

# System: OVCAR-5
# test-parameters: read-out: LC50; OVCAR-5 (Ovarian Cancer), 48 hours, SRB
Items are presented alongside their recorded CC50.
measurement-label: CC50 (µM)

>>> measured("CC1(C)C=Cc2c(ccc3c4c(n(O)c23)C(C)(C)C2CC35CCCN3C(=O)C2(NC5=O)C4SCC(NC(=O)CCC(N)C(=O)O)C(=O)NCC(=O)O)O1 (centres unmarked) [Glutathione Adduct]")
12
>>> measured("CN(C)c1cccc2c(S(=O)(=O)NCCCCCCCCCCOc3ccc4c(c3)[N+]([O-])=C3C4=C[C@@]45NC(=O)C6(CCCN6C4=O)CC5C3(C)C)cccc12 (some centres unmarked) [Dansyl Analogue]")
5.97
